Hello, the source for this data is patent US20210324080A1, in case you need it.

Entries and their kon values follow.
# Assay Target: T1, recombinant His-labeled hCTLA-4 ECD protein (human, UniProt P16410 36-161)
# T1 construct: extracellular domain; also called human CTLA-4 ECD; not shown: His label
# T1 sequence (looked up): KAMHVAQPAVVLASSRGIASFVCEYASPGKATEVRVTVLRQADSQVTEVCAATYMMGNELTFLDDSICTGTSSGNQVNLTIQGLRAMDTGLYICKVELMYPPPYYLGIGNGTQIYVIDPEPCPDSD
# Protocol: SPR Biacore T200, antibody captured by anti-human Fc, 1:1 model

# example entries with known answers
• 97A8D1 fully human CTLA-4 antibody (human IgG1, kappa) (antibody, V domains shown, also called mAb49; mAb049) VH: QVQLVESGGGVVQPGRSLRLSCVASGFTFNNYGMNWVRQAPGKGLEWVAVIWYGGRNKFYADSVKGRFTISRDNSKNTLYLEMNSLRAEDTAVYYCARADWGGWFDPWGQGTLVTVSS VL: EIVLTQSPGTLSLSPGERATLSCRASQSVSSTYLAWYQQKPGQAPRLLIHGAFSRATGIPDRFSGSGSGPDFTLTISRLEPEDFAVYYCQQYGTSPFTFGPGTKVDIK = 405000 M⁻¹ s⁻¹
• 31C12F3 fully human CTLA-4 antibody (human IgG1, kappa) (antibody, V domains shown, also called mAb010) VH: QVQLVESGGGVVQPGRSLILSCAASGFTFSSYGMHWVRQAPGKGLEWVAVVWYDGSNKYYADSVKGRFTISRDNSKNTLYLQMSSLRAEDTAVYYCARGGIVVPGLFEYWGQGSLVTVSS VL: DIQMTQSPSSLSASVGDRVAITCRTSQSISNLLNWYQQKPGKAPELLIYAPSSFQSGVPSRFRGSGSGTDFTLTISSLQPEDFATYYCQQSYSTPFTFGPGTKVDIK = 450000 M⁻¹ s⁻¹
• 40C4C6 fully human CTLA-4 antibody (human IgG1, kappa) (antibody, V domains shown, also called mAb09; mAb009) VH: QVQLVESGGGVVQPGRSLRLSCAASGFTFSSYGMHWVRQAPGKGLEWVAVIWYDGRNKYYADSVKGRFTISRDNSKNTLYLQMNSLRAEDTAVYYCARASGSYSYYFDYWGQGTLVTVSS VL: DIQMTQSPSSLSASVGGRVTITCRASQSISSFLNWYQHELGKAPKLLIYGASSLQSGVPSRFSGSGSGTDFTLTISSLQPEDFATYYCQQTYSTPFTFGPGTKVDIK = 720000 M⁻¹ s⁻¹

Inquiry: Could you share which kon value was measured for 92C8B6 fully human CTLA-4 antibody (human IgG1, kappa) (antibody, V domains shown, also called mAb42; mAb042) VH: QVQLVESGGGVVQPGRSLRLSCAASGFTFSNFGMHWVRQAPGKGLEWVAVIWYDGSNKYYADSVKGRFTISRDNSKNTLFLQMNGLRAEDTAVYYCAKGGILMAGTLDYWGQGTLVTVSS VL: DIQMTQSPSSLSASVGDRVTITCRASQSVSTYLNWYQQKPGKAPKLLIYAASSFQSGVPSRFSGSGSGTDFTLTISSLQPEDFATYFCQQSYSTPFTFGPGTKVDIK ?
Reply text: 744000 M⁻¹ s⁻¹
